Target: T1, human CTGF (antigen of the Biacore assays) (human, UniProt P29279 27-349)
T1 construct: also called antigen human CTGF; human CTGF protein
T1 sequence (looked up): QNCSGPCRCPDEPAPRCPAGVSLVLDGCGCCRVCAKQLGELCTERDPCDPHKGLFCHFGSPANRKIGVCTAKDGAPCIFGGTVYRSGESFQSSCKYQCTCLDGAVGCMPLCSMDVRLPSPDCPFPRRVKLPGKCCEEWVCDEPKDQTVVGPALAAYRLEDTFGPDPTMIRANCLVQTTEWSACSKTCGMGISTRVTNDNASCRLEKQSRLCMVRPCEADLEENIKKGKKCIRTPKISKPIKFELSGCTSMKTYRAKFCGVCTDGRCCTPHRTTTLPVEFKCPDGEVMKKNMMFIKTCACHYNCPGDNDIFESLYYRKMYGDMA
Assay: Biacore, antibody captured on Protein A, CTGF in flow, 1:1 fit
MEASUREMENT_TYPE: kon
# answer = value followed by unit

Quick note, kon for Hu147-33wk (antibody, human IgG1, kappa, V domains shown) VH: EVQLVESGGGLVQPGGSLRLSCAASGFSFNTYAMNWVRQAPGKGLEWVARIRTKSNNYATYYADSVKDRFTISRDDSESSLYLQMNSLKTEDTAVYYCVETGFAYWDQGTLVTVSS VL: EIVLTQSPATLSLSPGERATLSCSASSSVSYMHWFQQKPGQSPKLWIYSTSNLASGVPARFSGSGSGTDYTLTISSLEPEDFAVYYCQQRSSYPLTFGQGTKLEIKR landed at 1.45e+07 M⁻¹ s⁻¹

Numbers sourced from patent US20220324953A1.
